Entries and their TGI values follow.
# System: UACC-62 melanoma
# Measurement notes: NCI tumour cell line growth inhibition, 48 h
Value type: TGI

>  <Molecule>
COc1ccccc1OCc1nnc(SCC(=O)O)n1-c1ccccc1

>  <Observed result>
> 100 µM

$$$$
>  <Molecule>
COc1ccc(-c2ccc(=O)oc2-c2cc(OC)c(OC)c(OC)c2)cc1O

>  <Observed result>
> 100 µM

$$$$
>  <Molecule>
CCOP(=O)(C/C(=N/NC(C)(C)C)C(=O)Nc1nc2ccc(C)cc2s1)OCC

>  <Observed result>
> 100 µM

$$$$
>  <Molecule>
O=c1[nH]ncc2[nH]c3c(c12)CCCc1ccccc1-3

>  <Observed result>
> 100 µM

$$$$
>  <Molecule>
COc1cc2c(cc1OC)C(C1(O)CCCCC1)NCC2 (stereo not given)

>  <Observed result>
> 100 µM

$$$$
>  <Molecule>
COC(=O)c1ccc(/C=N/c2cc(C)nn2-c2ccccc2)cc1

>  <Observed result>
> 100 µM

$$$$
>  <Molecule>
N#CC(C(=N/NC(N)=S)/C(=N\NC(N)=S)C(C#N)c1ccccc1)c1ccccc1 (stereo not given)

>  <Observed result>
> 10 µM

$$$$
>  <Molecule>
S=C(NNC1=NCCCCN1)Nc1ccccc1

>  <Observed result>
> 100 µM

$$$$
>  <Molecule>
CC(=O)[CH-]C(=O)c1ccccc1.CC(=O)[CH-]C(=O)c1ccccc1.CC(C)CCCC(C)[C@H]1CCC2[C@@H]3CCC4C[C@@H]([O-])CC[C@]4(C)C3CC[C@@]21C.CC(C)CCCC(C)[C@H]1CCC2[C@@H]3CCC4C[C@@H]([O-])CC[C@]4(C)C3CC[C@@]21C.Cl.[Ti+4] (stereo not given in full)

>  <Observed result>
> 25 µM

$$$$
>  <Molecule>
CC(C)[C@H](COC(C)(C)C)N=CN1CSc2ccccc21

>  <Observed result>
> 100 µM

$$$$
>  <Molecule>
CO/N=C(\COc1ccc2c(=O)cc(-c3ccccc3)oc2c1)c1ccc(OC)cc1

>  <Observed result>
> 100 µM

$$$$
>  <Molecule>
CC(=O)C1C(=O)C(=O)N(c2ccc(Cl)cc2C)C1=O (stereo not given)

>  <Observed result>
> 100 µM

$$$$
>  <Molecule>
Cc1nc(SCC(=O)Nc2ccccc2)c2sc(=S)n(-c3ccccc3)c2n1

>  <Observed result>
> 10 µM

$$$$
>  <Molecule>
Oc1ccc2ccccc2c1N=Nc1ccc(N=Nc2ccccc2)cc1

>  <Observed result>
> 100 µM

$$$$
>  <Molecule>
CC(C)(C)OC(=O)N(CCCn1c2c(c3ccccc3c1=O)C(=O)c1ccccc1-2)CCN(CCCn1c2c(c3ccccc3c1=O)C(=O)c1ccccc1-2)C(=O)OC(C)(C)C

>  <Observed result>
> 50 µM

$$$$
>  <Molecule>
COc1cccc(N2CCc3c(C)c(C#N)c4nc5ccccc5n4c32)c1

>  <Observed result>
> 100 µM

$$$$
>  <Molecule>
CC(=O)OCC1OC(Sc2nc(-c3ccc(C)cc3)c(C#N)c(=O)n2C2OC(COC(C)=O)C(OC(C)=O)C(OC(C)=O)C2OC(C)=O)C(OC(C)=O)C(OC(C)=O)C1OC(C)=O (stereo not given)

>  <Observed result>
> 100 µM

$$$$
>  <Molecule>
CCOC(=O)NC(=O)c1cn(-c2ccc(CCOC(=O)CCCCCCCCC(=O)OCCc3ccc(-n4cc(C(=O)NC(=O)OCC)c(=O)[nH]c4=O)cc3)cc2)c(=O)[nH]c1=O

>  <Observed result>
> 100 µM

$$$$
>  <Molecule>
c1ccc(CN2CCC3(CC2)ONC2=NCCN23)cc1

>  <Observed result>
> 100 µM

$$$$
>  <Molecule>
S=C1SC2(CCCCCC2)NC2=C1CCCCC2

>  <Observed result>
> 100 µM

$$$$
